Provide the reported viability at 125 µg/mL of each item.
# Test system: WI-38 human normal fibroblast cells
# assay-protocol: cell viability assay (MTT)
# Type: cell-based
# setup-conditions: 125 µg/mL, 24 h, read-out: Validity (%) for sample concentrations (µg/mL) 125
Field: value (include unit after the number)

Look over these answered cases.
1) O=C1C(Cl)C(c2ccc[nH]2)N1c1nc(-c2cc(Cl)cc3c2-c2ccc(Cl)cc2C3)cs1 (stereo not shown) | 70.2%
2) O=C1C(Cl)C(c2ccncc2)N1c1nc(-c2cc(Cl)cc3c2-c2ccc(Cl)cc2C3)cs1 (stereo not shown) | 68.5%
3) O=C1CSC(c2cccs2)N1c1nc(-c2cc(Cl)cc3c2-c2ccc(Cl)cc2C3)cs1 (stereo not shown) | 64.8%

Field: next molecule
Query string: // Input: CN(C)c1ccc(C2C(Cl)C(=O)N2c2nc(-c3cc(Cl)cc4c3-c3ccc(Cl)cc3C4)cs2)cc1 (stereo not shown) . Output its viability at 125 µg/mL only.
Result string: 45.6%
